meta.source: ChEMBL document CHEMBL1133651

Test Target: D(3) dopamine receptor (Homo sapiens)
Sequence (P35462 whole entry): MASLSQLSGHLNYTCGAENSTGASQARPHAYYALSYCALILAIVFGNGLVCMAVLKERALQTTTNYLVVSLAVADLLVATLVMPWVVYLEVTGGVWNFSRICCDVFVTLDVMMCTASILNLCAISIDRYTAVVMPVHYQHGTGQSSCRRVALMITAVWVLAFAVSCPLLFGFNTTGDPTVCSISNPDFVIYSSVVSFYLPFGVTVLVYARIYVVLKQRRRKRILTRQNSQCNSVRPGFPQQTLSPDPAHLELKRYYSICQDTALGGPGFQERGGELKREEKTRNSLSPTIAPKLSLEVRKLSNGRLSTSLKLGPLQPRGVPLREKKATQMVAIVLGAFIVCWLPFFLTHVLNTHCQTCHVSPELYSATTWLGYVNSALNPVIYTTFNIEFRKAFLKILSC
pKi: −log10 of the molar value.
Experimental Endpoint: pKi

1. CCCN(CCC)C1Cc2cc3nc(N)sc3cc2C1 (stereo not drawn): 8.85
2. CCCN(CCC)C1Cc2ccc3nc(N)sc3c2C1 (stereo not drawn): 7.96

---

Test Target: D(2) dopamine receptor (Rattus norvegicus)
Experiment Summary: compound was tested for intrinsic activity for thymidine uptake in CHO-L6 cells transfected with rat Dopamine receptor D2L
Assay type: functional, cell-based
Experimental Endpoint: Intrinsic activity (%)

1. CCCN(CCC)C1Cc2ccc3nc(N)sc3c2C1 (centres undefined): 71
2. CCCN[C@H]1CCc2nc(N)sc2C1 [PRAMIPEXOLE]: 90
3. CCCN(CCC)C1Cc2cc3nc(N)sc3cc2C1 (centres undefined): 28
4. CCCN(CCC)C1COc2ccc3nc(N)sc3c2C1 (centres undefined): 7
